Data provenance is patent US20230357179A1.

- SUBJECT_OF_TEST: A-Raf kinase (Homo sapiens, UniProt P10398, Y301D/Y302D)
- Construct: purchased Sigma
- Sequence (P10398 with tags, fused parts or gaps Y301D/Y302D): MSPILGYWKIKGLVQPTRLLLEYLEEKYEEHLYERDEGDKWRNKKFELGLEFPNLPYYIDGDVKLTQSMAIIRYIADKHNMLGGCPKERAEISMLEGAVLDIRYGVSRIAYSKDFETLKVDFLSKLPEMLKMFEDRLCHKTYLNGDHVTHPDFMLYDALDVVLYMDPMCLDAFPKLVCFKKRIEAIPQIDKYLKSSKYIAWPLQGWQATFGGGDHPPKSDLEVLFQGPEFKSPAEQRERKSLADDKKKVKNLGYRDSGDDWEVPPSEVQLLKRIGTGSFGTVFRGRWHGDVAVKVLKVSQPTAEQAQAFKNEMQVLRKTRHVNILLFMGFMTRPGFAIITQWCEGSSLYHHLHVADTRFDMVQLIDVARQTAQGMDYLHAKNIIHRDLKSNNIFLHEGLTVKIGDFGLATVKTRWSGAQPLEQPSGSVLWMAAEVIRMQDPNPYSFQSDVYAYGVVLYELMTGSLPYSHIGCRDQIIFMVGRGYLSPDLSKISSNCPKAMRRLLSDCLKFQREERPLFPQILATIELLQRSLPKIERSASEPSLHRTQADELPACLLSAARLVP
- ASSAY_INFO: Biochemical assay for A-Raf.1 (coupled pyruvate kinase/lactate dehydrogenase)
- CONDITION_NOTES: read-out: ARAF.1 IC50
pIC50: −log10 of the molar value.
MEASURE: pIC50

Worked cases, answers included:
[
  {
    "COMPOUND": "Cc1cc(F)c(NC(=O)NCCC(C)(C)C#N)cc1-c1cccc(-c2ccnc(NC(=O)C3CC3)c2)c1",
    "SUBJECT_OF_TEST": "A-Raf kinase (Homo sapiens, UniProt P10398, Y301D/Y302D)",
    "RESULT": "< 6.00"
  },
  {
    "COMPOUND": "CNC(=O)c1cc(-c2cncc(-c3cc(NC(=O)N4CC[C@H](C(F)(F)F)C4)c(F)cc3C)c2)ccn1",
    "SUBJECT_OF_TEST": "A-Raf kinase (Homo sapiens, UniProt P10398, Y301D/Y302D)",
    "RESULT": "< 6.00"
  },
  {
    "COMPOUND": "Cc1ccc(NC(=O)N2CC[C@@H](C(F)(F)F)C2)cc1-c1cncc(-c2ccnc(NC(=O)C3CC3)c2)c1",
    "SUBJECT_OF_TEST": "A-Raf kinase (Homo sapiens, UniProt P10398, Y301D/Y302D)",
    "RESULT": "< 6.00"
  },
  {
    "COMPOUND": "CNC(=O)c1cc(-c2cnnc(-c3cc(NC(=O)N4CCC(C(C)(C)C)C4)cnc3C)c2)ccn1 (centres unmarked)",
    "SUBJECT_OF_TEST": "A-Raf kinase (Homo sapiens, UniProt P10398, Y301D/Y302D)",
    "RESULT": "< 6.00"
  },
  {
    "COMPOUND": "COC(=O)Nc1cc(-c2cnnc(-c3cc(NC(=O)N4CCC(CC(F)(F)F)C4)ccc3C)c2)ccn1 (centres unmarked)",
    "SUBJECT_OF_TEST": "A-Raf kinase (Homo sapiens, UniProt P10398, Y301D/Y302D)",
    "RESULT": "< 6.00"
  }
]

Query compound follows.
So what's the measured pIC50 for this one? `Cc1cc(F)c(NC(=O)NCCC(C)(C)F)cc1-c1cccc(-c2cc(NC(=O)C3CC3)ncn2)c1` 6.30 to 7.00

====

Entries annotated with measured IC50
- SUBJECT_OF_TEST: A-Raf kinase (Homo sapiens, UniProt P10398, Y301D/Y302D)
- Construct: purchased Sigma
- ASSAY_INFO: Biochemical assay for A-Raf.1 (coupled pyruvate kinase/lactate dehydrogenase)
- CONDITION_NOTES: read-out: ARAF.1 IC50

Worked cases, answers included:
[
  {
    "COMPOUND": "COC(=O)Nc1cc(-c2cc(-c3cc(NC(=O)NCCC(C)(C)OC)c(F)cc3F)ccn2)ccn1",
    "MEASURE": "IC50",
    "RESULT": "> 1 µM"
  },
  {
    "COMPOUND": "Cc1cc(F)c(NC(=O)NCCC2(C)CC2)cc1-c1cc(OCC(C)(C)O)nc(-c2ccncc2)c1",
    "MEASURE": "IC50",
    "RESULT": "> 1 µM"
  },
  {
    "COMPOUND": "COC(=O)Nc1cc(-c2nccc(-c3cc(NC(=O)NCCC4(C)CC4)cnc3C)n2)ccn1",
    "MEASURE": "IC50",
    "RESULT": "> 1 µM"
  },
  {
    "COMPOUND": "COC(=O)Nc1cc(-c2cc(-c3cc(NC(=O)N4CCC(C)(C)C4)cnc3C)ccn2)ccn1",
    "MEASURE": "IC50",
    "RESULT": "> 1 µM"
  },
  {
    "COMPOUND": "Cc1ccc(NC(=O)N2CCC(C(F)(F)F)C2)cc1-c1cccc(-c2cc(NC(=O)C3CC3)ncn2)c1 (stereo not drawn)",
    "MEASURE": "IC50",
    "RESULT": "0.5 to 1 µM"
  }
]

Query compound follows.
So what's the measured IC50 for this one? `Cc1cc(F)c(NC(=O)NCCC2(C)CC2)cc1-c1cc(OCCO)nc(-c2ccnc(NC(=O)C3CC3)c2)c1` 0.1 to 0.5 µM
